# ASSAYED_TARGET: ROCK2 (Homo sapiens)
# Sequence (O75116 whole entry): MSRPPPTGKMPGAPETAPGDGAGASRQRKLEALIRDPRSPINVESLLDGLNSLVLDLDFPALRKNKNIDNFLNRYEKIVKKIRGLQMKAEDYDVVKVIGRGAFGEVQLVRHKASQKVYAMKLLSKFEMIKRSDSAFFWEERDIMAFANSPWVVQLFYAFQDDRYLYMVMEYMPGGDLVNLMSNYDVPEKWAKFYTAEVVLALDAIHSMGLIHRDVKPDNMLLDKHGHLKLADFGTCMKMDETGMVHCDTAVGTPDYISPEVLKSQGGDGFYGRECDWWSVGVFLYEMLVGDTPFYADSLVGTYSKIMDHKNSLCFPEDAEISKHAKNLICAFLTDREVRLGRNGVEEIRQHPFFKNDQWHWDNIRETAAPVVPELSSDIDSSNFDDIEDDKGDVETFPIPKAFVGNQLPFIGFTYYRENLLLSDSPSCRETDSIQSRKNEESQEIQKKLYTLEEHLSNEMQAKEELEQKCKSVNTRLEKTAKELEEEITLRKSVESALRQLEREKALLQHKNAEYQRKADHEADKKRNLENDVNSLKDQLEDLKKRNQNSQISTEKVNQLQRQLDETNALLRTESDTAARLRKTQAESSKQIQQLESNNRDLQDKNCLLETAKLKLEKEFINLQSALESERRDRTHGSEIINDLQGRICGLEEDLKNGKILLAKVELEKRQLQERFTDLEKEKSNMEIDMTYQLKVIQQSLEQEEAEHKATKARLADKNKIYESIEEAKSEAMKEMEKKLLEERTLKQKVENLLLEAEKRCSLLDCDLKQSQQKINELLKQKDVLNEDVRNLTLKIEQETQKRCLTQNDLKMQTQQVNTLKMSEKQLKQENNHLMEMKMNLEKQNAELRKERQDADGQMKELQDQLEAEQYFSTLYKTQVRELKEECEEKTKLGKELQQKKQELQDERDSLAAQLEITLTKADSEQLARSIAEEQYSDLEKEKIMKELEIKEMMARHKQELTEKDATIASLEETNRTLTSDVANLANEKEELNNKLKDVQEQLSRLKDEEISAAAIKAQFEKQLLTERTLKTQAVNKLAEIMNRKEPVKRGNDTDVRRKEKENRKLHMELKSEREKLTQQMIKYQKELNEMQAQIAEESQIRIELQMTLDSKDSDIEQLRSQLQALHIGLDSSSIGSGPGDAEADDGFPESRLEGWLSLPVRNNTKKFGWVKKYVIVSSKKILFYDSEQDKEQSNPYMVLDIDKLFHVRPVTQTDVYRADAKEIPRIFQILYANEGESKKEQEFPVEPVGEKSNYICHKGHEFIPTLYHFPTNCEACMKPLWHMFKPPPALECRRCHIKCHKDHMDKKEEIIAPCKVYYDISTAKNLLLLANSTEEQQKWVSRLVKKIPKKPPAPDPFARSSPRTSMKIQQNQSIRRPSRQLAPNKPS
# ASSAY_SUMMARY: Kinase Selectivity Assay (CEREP, HTRF)
# Type: biochemical
# EXPERIMENTAL_CONDITIONS: read-out: % Inhibition at 10 μM Concentration, ROCK2
Measured inhibition at 10 µM, listed per entry.
ENDPOINT_LABEL: inhibition at 10 µM (%)

| COMPOUND | MEASURED_RESULT |
| --- | --- |
| O=C1Nc2ccccc2/C1=C\c1ccc2cn[nH]c2c1 | 3 |
| COc1ccc2c(c1)C(=Cc1ccc3c(-c4ccc(N5CCN(C)CC5)nc4)n[nH]c3c1)C(=O)N2 (mixture of isomers) | 22 |
| O=C1Nc2ccccc2C1=Cc1ccc2c(/C=C/c3ccccn3)n[nH]c2c1 (mixture of isomers) | -3 |
| O=C1Nc2ccccc2/C1=C\c1ccc2[nH]nnc2c1 | 1 |
| O=C1Nc2ccccc2/C1=C\c1ccc2c(/C=C/c3ccccc3Cl)n[nH]c2c1 | -1 |

###

# ASSAYED_TARGET: CaMK2a (Homo sapiens)
# Construct: CEREP, France (ran the assays)
# Sequence (Q9UQM7 whole entry): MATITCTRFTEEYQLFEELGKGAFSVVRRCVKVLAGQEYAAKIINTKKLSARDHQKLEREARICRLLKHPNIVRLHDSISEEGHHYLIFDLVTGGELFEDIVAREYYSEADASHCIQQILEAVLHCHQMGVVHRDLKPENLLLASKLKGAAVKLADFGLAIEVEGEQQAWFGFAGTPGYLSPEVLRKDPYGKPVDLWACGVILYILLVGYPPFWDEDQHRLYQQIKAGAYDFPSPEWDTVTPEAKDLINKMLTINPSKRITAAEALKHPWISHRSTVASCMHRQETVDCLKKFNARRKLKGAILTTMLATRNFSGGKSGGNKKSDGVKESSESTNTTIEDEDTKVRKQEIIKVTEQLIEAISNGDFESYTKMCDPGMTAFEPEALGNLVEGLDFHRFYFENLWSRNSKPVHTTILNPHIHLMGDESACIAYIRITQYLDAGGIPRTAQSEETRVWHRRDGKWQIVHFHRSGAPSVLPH
# ASSAY_SUMMARY: Kinase Selectivity Assay (CEREP, HTRF)
# Format: biochemical
# EXPERIMENTAL_CONDITIONS: read-out: % Inhibition at 10 μM Concentration, CaMK2alpha

| MOLECULE | inhibition at 10 µM |
| --- | --- |
| O=C1Nc2ccccc2/C1=C\c1ccc2c(/C=C/c3ccccc3Cl)n[nH]c2c1 | -2% |
| O=C1Nc2ccccc2C1=Cc1ccc2c(/C=C/c3ccccn3)n[nH]c2c1 (mixture of isomers) | 31% |
| O=C1Nc2ccccc2/C1=C\c1ccc2[nH]nnc2c1 | 4% |
| COc1ccc2c(c1)C(=Cc1ccc3c(-c4ccc(N5CCN(C)CC5)nc4)n[nH]c3c1)C(=O)N2 (mixture of isomers) | 14% |
| O=C1Nc2ccccc2/C1=C\c1ccc2cn[nH]c2c1 | -3% |

###

# ASSAYED_TARGET: human PLK4 (Homo sapiens)
# Construct: amino terminal GST fusion of residues 1-391 of human PLK4; made in house; host or cells: E. coli
# Sequence (O00444 1-391): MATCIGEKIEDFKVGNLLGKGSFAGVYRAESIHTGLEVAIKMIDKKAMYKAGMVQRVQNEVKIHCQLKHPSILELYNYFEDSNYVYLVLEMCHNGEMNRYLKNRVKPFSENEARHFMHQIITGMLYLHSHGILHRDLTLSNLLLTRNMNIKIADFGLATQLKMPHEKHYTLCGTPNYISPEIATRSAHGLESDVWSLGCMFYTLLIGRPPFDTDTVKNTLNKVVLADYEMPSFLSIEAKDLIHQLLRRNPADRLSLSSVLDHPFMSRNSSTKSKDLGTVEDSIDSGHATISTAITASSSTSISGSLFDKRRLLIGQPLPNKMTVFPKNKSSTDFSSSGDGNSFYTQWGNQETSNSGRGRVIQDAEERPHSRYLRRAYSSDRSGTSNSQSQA
# ASSAY_SUMMARY: PLK4 Inhibition Assay (indirect ELISA)
# Type: biochemical
# EXPERIMENTAL_CONDITIONS: 15 μM ATP, 4 nM GST-PLK4; read-out: PLK4 IC50 Ranges
pIC50: −log10 of the molar value.
Measured pIC50, listed per entry.
ENDPOINT_LABEL: pIC50

| MOLECULE | ENDPOINT_LABEL | MEASURED_RESULT |
| --- | --- | --- |
| O=C1Nc2ccc(C(=O)Nc3ccccc3)cc2/C1=C\c1ccc2cn[nH]c2c1 | pIC50 | > 5.30 |
| O=C1Nc2cccc(Br)c2/C1=C/c1ccc2cn[nH]c2c1 | pIC50 | > 5.30 |
| O=C1Nc2cc(Cl)ccc2/C1=C\c1ccc2cn[nH]c2c1 | pIC50 | > 5.30 |
| Cc1ccc2c(c1)/C(=C\c1ccc3c(/C=C/c4ccncc4)n[nH]c3c1)C(=O)N2 | pIC50 | > 5.30 |
| O=C1Nc2ccc(F)cc2C1=Nc1ccc2cn[nH]c2c1 | pIC50 | 4.30 to 5.30 |
| CN(C)CCCNc1ccc2c(c1)C(=Cc1ccc3c(/C=C/c4ccncc4)n[nH]c3c1)C(=O)N2 (mixture of isomers) | pIC50 | > 5.30 |
| Cc1ccc2c(c1)C(=Nc1ccc3cn[nH]c3c1)C(=O)N2 | pIC50 | > 5.30 |
| COC(=O)/C=C/c1n[nH]c2cc(/C=C3/C(=O)Nc4ccccc43)ccc12 | pIC50 | > 5.30 |
| N#Cc1ccc2c(c1)C(=Cc1ccc3c(/C=C/c4ccncc4)n[nH]c3c1)C(=O)N2 (mixture of isomers) | pIC50 | > 5.30 |
| CN(C)CCN(C)S(=O)(=O)c1ccc2c(c1)C(=Cc1ccc3c(/C=C/c4ccncc4)n[nH]c3c1)C(=O)N2 (mixture of isomers) | pIC50 | > 5.30 |
| O=C1Nc2ncc(Br)cc2C1=Cc1ccc2c(/C=C/c3ccncc3)n[nH]c2c1 (mixture of isomers) | pIC50 | > 5.30 |
| CC(C)(C)OC(=O)Nc1ccc2c(c1)/C(=C\c1ccc3cn[nH]c3c1)C(=O)N2 | pIC50 | > 5.30 |
| O=C1Nc2ccccc2/C1=C\c1ccc2c(/C=C/c3cccnc3)n[nH]c2c1 | pIC50 | > 5.30 |
| CS(=O)(=O)Nc1ccc2c(c1)/C(=C\c1ccc3nn[nH]c3c1)C(=O)N2 | pIC50 | > 5.30 |
| CN(C)Cc1ccc(/C=C/c2n[nH]c3cc(C=C4C(=O)Nc5ccccc54)ccc23)cc1 (mixture of isomers) [Example A106, 2,2,2-trifluoroacetate] | pIC50 | > 5.30 |
| CN1C(=O)/C(=C/c2ccc3nn[nH]c3c2)c2ccccc21 | pIC50 | 4.30 to 5.30 |

###

# ASSAYED_TARGET: UniProtKB P00519
# Sequence (P00519 whole entry): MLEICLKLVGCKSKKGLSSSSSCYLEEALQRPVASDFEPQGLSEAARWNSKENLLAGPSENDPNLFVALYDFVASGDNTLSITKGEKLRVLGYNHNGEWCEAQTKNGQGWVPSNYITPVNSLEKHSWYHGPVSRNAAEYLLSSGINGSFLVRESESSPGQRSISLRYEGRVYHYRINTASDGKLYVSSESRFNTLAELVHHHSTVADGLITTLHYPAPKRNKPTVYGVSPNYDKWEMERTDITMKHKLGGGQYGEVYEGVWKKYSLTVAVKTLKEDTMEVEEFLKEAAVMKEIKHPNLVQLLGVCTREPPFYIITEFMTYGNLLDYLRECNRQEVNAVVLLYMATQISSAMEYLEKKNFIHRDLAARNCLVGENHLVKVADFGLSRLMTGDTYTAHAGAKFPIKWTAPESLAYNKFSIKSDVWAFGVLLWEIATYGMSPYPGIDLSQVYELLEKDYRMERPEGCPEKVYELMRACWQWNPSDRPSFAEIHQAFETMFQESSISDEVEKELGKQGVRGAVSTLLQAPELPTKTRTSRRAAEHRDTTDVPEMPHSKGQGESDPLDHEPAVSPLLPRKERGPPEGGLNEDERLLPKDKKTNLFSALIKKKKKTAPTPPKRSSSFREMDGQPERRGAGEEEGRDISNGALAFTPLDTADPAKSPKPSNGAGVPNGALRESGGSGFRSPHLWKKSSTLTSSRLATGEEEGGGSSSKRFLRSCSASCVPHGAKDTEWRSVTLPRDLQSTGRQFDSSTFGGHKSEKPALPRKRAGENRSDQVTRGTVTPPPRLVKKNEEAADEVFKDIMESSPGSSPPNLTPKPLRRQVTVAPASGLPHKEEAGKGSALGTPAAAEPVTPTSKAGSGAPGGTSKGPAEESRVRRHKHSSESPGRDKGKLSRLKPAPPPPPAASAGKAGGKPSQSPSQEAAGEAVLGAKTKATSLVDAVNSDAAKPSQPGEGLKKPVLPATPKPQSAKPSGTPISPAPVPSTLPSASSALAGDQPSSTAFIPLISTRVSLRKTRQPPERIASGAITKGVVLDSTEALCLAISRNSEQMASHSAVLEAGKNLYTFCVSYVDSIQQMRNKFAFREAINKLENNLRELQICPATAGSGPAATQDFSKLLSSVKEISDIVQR
# ASSAY_SUMMARY: Kinase Selectivity Assay (CEREP, HTRF)
# Format: biochemical
# Design: CEREP, France (ran the assays)
# EXPERIMENTAL_CONDITIONS: read-out: % Inhibition at 10 μM Concentration, Abl
# Method: kinase, ROCK2, RSK2, Src kinase, Syk, and TRKA. The % Inhibition was determined
Binary classification by inhibition at 10 µM, with 40% as an inclusive lower bound for t; all other cases are f.

| COMPOUND | ASSAYED_TARGET | QUALITATIVE_LABEL |
| --- | --- | --- |
| O=C1Nc2ccccc2/C1=C\c1ccc2[nH]nnc2c1 | UniProtKB P00519 | f |
| COc1ccc2c(c1)C(=Cc1ccc3c(-c4ccc(N5CCN(C)CC5)nc4)n[nH]c3c1)C(=O)N2 (mixture of isomers) | UniProtKB P00519 | t |
| O=C1Nc2ccccc2/C1=C\c1ccc2cn[nH]c2c1 | UniProtKB P00519 | f |
| O=C1Nc2ccccc2C1=Cc1ccc2c(/C=C/c3ccccn3)n[nH]c2c1 (mixture of isomers) | UniProtKB P00519 | t |

###

# ASSAYED_TARGET: CDK2 (cycE) (Homo sapiens)
# Construct: CEREP, France (ran the assays)
# ASSAY_SUMMARY: Kinase Selectivity Assay (CEREP, HTRF)
# Assay type: biochemical
# EXPERIMENTAL_CONDITIONS: read-out: % Inhibition at 10 μM Concentration, CDK2 (cycE)
Measured inhibition at 10 µM, listed per entry.

| MOLECULE | READOUT_UNITS | inhibition at 10 µM |
| --- | --- | --- |
| O=C1Nc2ccccc2C1=Cc1ccc2c(/C=C/c3ccccn3)n[nH]c2c1 (mixture of isomers) | % | 8 |
| O=C1Nc2ccccc2/C1=C\c1ccc2cn[nH]c2c1 | % | 16 |
| COc1ccc2c(c1)C(=Cc1ccc3c(-c4ccc(N5CCN(C)CC5)nc4)n[nH]c3c1)C(=O)N2 (mixture of isomers) | % | 3 |
| O=C1Nc2ccccc2/C1=C\c1ccc2[nH]nnc2c1 | % | 10 |
| O=C1Nc2ccccc2/C1=C\c1ccc2c(/C=C/c3ccccc3Cl)n[nH]c2c1 | % | 5 |

###

Measured inhibition at 10 µM, listed per entry.
# ASSAYED_TARGET: p38a kinase (Homo sapiens, UniProt Q16539)
# Sequence (Q16539 whole entry): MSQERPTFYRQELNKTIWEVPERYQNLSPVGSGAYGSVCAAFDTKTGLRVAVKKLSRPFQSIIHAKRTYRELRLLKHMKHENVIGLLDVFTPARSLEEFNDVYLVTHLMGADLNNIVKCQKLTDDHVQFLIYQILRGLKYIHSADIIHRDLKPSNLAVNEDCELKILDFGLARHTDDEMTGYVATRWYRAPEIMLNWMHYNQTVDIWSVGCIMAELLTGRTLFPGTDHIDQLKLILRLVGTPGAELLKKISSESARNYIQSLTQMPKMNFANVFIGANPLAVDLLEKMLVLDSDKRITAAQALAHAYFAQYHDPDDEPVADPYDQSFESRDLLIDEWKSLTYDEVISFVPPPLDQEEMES
# ASSAY_SUMMARY: Kinase Selectivity Assay (CEREP, HTRF)
# Assay type: biochemical
# EXPERIMENTAL_CONDITIONS: read-out: % Inhibition at 10 μM Concentration, p38alpha
ENDPOINT_LABEL: inhibition at 10 µM

| COMPOUND | MEASURED_RESULT |
| --- | --- |
| O=C1Nc2ccccc2/C1=C\c1ccc2c(/C=C/c3ccccc3Cl)n[nH]c2c1 | 1% |
| O=C1Nc2ccccc2/C1=C\c1ccc2cn[nH]c2c1 | 18% |
| O=C1Nc2ccccc2/C1=C\c1ccc2[nH]nnc2c1 | -8% |
| COc1ccc2c(c1)C(=Cc1ccc3c(-c4ccc(N5CCN(C)CC5)nc4)n[nH]c3c1)C(=O)N2 (mixture of isomers) | 11% |
| O=C1Nc2ccccc2C1=Cc1ccc2c(/C=C/c3ccccn3)n[nH]c2c1 (mixture of isomers) | 16% |
